Biological target: UniProt P49662
Sequence (P49662 whole entry): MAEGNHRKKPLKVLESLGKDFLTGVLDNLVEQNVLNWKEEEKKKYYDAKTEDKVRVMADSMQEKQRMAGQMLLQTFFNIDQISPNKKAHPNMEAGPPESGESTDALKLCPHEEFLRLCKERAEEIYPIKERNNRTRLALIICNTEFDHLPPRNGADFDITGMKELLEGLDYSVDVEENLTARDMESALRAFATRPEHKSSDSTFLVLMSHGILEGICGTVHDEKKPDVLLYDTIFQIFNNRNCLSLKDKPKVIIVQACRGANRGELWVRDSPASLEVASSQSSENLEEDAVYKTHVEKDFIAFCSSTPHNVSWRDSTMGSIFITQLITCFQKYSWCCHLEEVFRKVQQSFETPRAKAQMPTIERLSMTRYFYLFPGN
Assay: Inhibition of human recombinant N-terminal His-tagged DTT-activated caspase-4 expressed in Escherichia coli using Ac-LEVD-AMC as substrate preincubated for 30 mins followed by substrate addition by fluorescence assay
pIC50: −log10 of the molar value.
pIC50 values for the molecules below.
reported metric: pIC50

INSERT INTO assay_data (molecule, readout_qualifier, test_result) VALUES
  ('COc1cccc(CN2CCN(c3cc(N4CCCC4)nc(N4CCCC4)n3)CC2)c1', '=', 6.13),
  ('O=[N+]([O-])c1ccc(CN2CCN(c3cc(N4CCCC4)nc(N4CCCC4)n3)CC2)cc1', '=', 6.24),
  ('O=[N+]([O-])c1ccccc1CN1CCN(c2cc(N3CCCC3)nc(N3CCCC3)n2)CC1', '=', 6.14),
  ('FC(F)(F)c1cc(CN2CCN(c3cc(N4CCCC4)nc(N4CCCC4)n3)CC2)cc(C(F)(F)F)c1', '<', 5.30),
  ('FC(F)(F)c1ccc(CN2CCN(c3cc(N4CCCC4)nc(N4CCCC4)n3)CC2)cc1', '=', 5.82);
